Origin of the recorded values: patent EP0539180A1

system: GMK cells; assay: Cytotoxicity, microscopically observed in GMK cell cultures; type: cell-based, green monkey; settings: 100 μg/ml
PROPERTY MEASURED: cytotoxicities

# count of solved cases: 4
Challenge: Supply reported cytotoxicities belonging to this compound: c1ccc(N2CCNCC2)cc1
Response given: (+)

Challenge: Supply reported cytotoxicities belonging to this compound: c1ccc(N2CCCCC2)cc1
Response given: (+)

Challenge: Supply reported cytotoxicities belonging to this compound: Fc1ccccc1N1CCNCC1
Response given: (+)

Challenge: Supply reported cytotoxicities belonging to this compound: Clc1ccc(N2CCNCC2)cc1
Response given: (±±)

More entries:
Challenge: Supply reported cytotoxicities belonging to this compound: Clc1cccc(N2CCNCC2)c1
Response given: (±±)

Challenge: Supply reported cytotoxicities belonging to this compound: Fc1ccc(N2CCNCC2)cc1
Response given: (+)

Challenge: Supply reported cytotoxicities belonging to this compound: FC(F)(F)c1ccccc1N1CCNCC1
Response given: (±)

Challenge: Supply reported cytotoxicities belonging to this compound: COc1ccccc1N1CCNCC1
Response given: (+)

Challenge: Supply reported cytotoxicities belonging to this compound: Clc1cccc(Cl)c1N1CCNCC1
Response given: (±)
